B1: library; numbered along this chain (parent)
chain: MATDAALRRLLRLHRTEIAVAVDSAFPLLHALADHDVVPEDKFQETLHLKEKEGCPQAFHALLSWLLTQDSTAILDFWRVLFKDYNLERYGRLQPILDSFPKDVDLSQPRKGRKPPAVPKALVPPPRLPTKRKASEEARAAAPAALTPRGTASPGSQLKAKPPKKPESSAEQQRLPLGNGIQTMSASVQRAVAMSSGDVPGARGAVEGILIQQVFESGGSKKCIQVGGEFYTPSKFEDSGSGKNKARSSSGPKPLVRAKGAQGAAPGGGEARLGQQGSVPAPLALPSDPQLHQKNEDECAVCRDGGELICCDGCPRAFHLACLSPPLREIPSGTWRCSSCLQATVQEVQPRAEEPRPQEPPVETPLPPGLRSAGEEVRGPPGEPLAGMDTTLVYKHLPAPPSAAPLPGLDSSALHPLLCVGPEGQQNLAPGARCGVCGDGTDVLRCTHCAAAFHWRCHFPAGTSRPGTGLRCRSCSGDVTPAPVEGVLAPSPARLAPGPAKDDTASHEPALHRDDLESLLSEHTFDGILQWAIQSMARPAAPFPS

Variants of: B1
Assay Overview: AIRE transcriptional activation functional score (insulin promoter-GFP; nonsense median 0, synonymous median 1) (normalised score); higher = higher AIRE activity (more reporter activation)
Condition Parameters: with insulin promoter-GFP reporter in HEK293
Parameter: AIRE transcriptional activation functional score

{"Variant Code": "A317G", "Endpoint Result": 0.974}
{"Variant Code": "V348F", "Endpoint Result": 1}
{"Variant Code": "V301L", "Endpoint Result": 1.01}
